All values here come from patent US20230416329A1.

# TESTED ON: bovine trypsin (Bos taurus, UniProt P00760)
# Sequence (P00760 24-246): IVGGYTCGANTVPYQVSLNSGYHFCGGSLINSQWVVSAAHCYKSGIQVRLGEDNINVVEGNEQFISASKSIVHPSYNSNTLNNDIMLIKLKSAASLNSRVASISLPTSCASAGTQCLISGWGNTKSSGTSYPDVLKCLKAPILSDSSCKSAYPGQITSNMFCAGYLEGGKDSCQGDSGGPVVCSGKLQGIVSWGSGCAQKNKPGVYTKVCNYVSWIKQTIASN
# ASSAY: Trypsin inhibitory activity of peptides (BApNA hydrolysis, OD405; IC50, Ki, residual activity)
# Format: biochemical
# DETAILS: read-out: inhibition constant (Ki) towards trypsin
Bridge positions count the residues as written; N and C are the ends. Peptide text beside a SMILES is read from it.
ENDPOINT: pKi
The value called pKi is obtained by taking minus log10 of the concentration in mol/L.

# example entries with known answers
CC[C@H](C)[C@@H]1NC(=O)[C@@H]2CCCN2C(=O)[C@@H]2CCCN2C(=O)[C@H]([C@@H](C)CC)NC(=O)[C@H](CO)NC(=O)[C@H](CCCCN)NC(=O)[C@H]([C@@H](C)O)NC(=O)CNC(=O)[C@H](CCCCN)NC(=O)[C@H](C)NC(=O)CNC(=O)[C@@H](N)CSSC[C@@H](C(=O)N[C@@H](Cc2ccccc2)C(=O)N2CCC[C@H]2C(=O)N[C@@H](CC(=O)O)C(=O)O)NC1=O [BT2] (H-CGAKGTKSIPPICFPD-OH; disulfide 1-13; N-terminus and C-terminus assumed)    6.19
CC[C@H](C)[C@@H]1NC(=O)[C@@H]2CCCN2C(=O)[C@@H]2CCCN2C(=O)[C@H]([C@@H](C)CC)NC(=O)[C@H](CO)NC(=O)[C@H](CCCCN)NC(=O)[C@H]([C@@H](C)O)NC(=O)[C@H](C)NC(=O)[C@H](C)NC(=O)CNC(=O)[C@@H](N)CSSC[C@@H](C(=O)N[C@@H](Cc2ccccc2)C(=O)N2CCC[C@H]2C(=O)N[C@@H](CC(=O)O)C(=O)O)NC1=O [BT7] (H-CGAATKSIPPICFPD-OH; disulfide 1-12; N-terminus and C-terminus assumed)    7.30
CC[C@H](C)[C@@H]1NC(=O)[C@@H]2CCCN2C(=O)[C@@H]2CCCN2C(=O)[C@H]([C@@H](C)CC)NC(=O)[C@H](CO)NC(=O)[C@H](CCCCN)NC(=O)[C@H]([C@@H](C)O)NC(=O)[C@H](C)NC(=O)[C@H](CCCNC(=N)N)NC(=O)CNC(=O)[C@@H](N)CSSC[C@@H](C(=O)N[C@@H](Cc2ccccc2)C(=O)O)NC1=O [BT9] (H-CGRATKSIPPICF-OH; disulfide 1-12; C-terminus assumed)    8.00
CC[C@H](C)[C@@H]1NC(=O)[C@H](C)NC(=O)[C@@H]2CCCN2C(=O)[C@H]([C@@H](C)CC)NC(=O)[C@H](CO)NC(=O)[C@H](CCCCN)NC(=O)[C@H]([C@@H](C)O)NC(=O)[C@H](C)NC(=O)[C@H](CCCNC(=N)N)NC(=O)CNC(=O)[C@@H](N)CSSC[C@@H](C(=O)N[C@@H](Cc2ccccc2)C(=O)O)NC1=O [BT10] (H-CGRATKSIPAICF-OH; disulfide 1-12)    7.70
CC[C@H](C)[C@@H]1NC(=O)[C@@H]2CCCN2C(=O)[C@@H]2CCCN2C(=O)[C@H]([C@@H](C)CC)NC(=O)[C@H](CO)NC(=O)[C@H](CCCCN)NC(=O)[C@H]([C@@H](C)O)NC(=O)[C@H](C)NC(=O)[C@H](CO)NC(=O)CNC(=O)[C@@H](N)CSSC[C@@H](C(=O)N[C@@H](Cc2ccccc2)C(=O)N2CCC[C@H]2C(=O)N[C@@H](CC(=O)O)C(=O)O)NC1=O [BT6] (H-CGSATKSIPPICFPD-OH; disulfide 1-12; N-terminus and C-terminus assumed)    7.22

input: Return pKi for the following molecule: CC[C@H](C)[C@@H]1NC(=O)[C@@H]2CCCN2C(=O)[C@@H]2CCCN2C(=O)[C@H]([C@@H](C)CC)NC(=O)[C@H](CO)NC(=O)[C@H](CCCCN)NC(=O)[C@H]([C@@H](C)O)NC(=O)[C@H](C)NC(=O)[C@H](CCCCN)NC(=O)[C@H](C)NC(=O)CNC(=O)[C@@H](N)CSSC[C@@H](C(=O)N[C@@H](Cc2ccccc2)C(=O)N2CCC[C@H]2C(=O)N[C@@H](CC(=O)O)C(=O)O)NC1=O [BT3] (H-CGAKATKSIPPICFPD-OH; disulfide 1-13; N-terminus and C-terminus assumed)
output: 6.85

input: Return pKi for the following molecule: CC[C@H](C)[C@@H]1NC(=O)[C@@H]2CCCN2C(=O)[C@@H]2CCCN2C(=O)[C@H]([C@@H](C)CC)NC(=O)[C@H](CO)NC(=O)[C@H](CCCCN)NC(=O)[C@H]([C@@H](C)O)NC(=O)[C@H](C)NC(=O)[C@H](CCCNC(=N)N)NC(=O)CNC(=O)[C@@H](N)CSSC[C@@H](C(=O)N[C@@H](Cc2ccccc2)C(=O)N2CCC[C@H]2C(=O)N[C@@H](CC(=O)O)C(=O)O)NC1=O [BT5] (H-CGRATKSIPPICFPD-OH; disulfide 1-12; N-terminus and C-terminus assumed)
output: 7.52
